Every entry's value here was drawn from paper PMC12767876.

Biological target: human serum albumin (Homo sapiens)
Sequence (P02768 25-609): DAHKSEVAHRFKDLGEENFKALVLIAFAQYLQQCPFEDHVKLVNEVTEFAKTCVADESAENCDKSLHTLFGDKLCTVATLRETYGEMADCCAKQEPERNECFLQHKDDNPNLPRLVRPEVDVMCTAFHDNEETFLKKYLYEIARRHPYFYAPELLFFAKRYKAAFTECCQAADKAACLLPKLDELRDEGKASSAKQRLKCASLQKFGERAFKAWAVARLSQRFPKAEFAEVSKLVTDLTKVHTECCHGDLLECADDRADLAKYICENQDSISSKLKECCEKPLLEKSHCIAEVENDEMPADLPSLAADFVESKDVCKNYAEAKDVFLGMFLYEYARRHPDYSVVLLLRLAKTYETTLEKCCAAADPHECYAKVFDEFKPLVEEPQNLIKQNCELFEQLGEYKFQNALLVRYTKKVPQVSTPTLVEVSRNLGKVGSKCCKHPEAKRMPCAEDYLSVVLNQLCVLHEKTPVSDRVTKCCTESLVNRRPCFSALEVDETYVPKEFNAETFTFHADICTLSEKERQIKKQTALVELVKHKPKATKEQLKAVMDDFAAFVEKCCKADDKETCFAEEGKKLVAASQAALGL
Experiment: HPLC determination of plasma protein binding using human serum albumin coated column
Format: in vitro ADME
Details: read-out: % PPB (plasma protein binding) (converted)
outcome measure: fraction unbound

CCC(C)N(C)C(=O)c1cc2ccccc2c(-c2ccccc2Cl)n1 (centres unmarked) [PK11195, reference compound] | 0.08
CC[C@@H](C)N(C)C(=O)c1nc2ccccc2c(-c2ccccc2)c1CF | 0.08

* * *

Target: TSPO (Homo sapiens)
Sequence (P30536 2-169): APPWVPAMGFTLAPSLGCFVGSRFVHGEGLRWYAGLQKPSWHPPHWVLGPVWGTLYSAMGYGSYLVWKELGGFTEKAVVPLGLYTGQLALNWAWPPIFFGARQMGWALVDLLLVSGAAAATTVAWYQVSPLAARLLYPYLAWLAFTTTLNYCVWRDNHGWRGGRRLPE
outcome measure: Ki (nM)
Numbers only; they are read as nM.

What value of measured Ki is listed for CC[C@H](C)N(C)C(=O)c1nc2ccccc2c(-c2ccccc2)c1CF [(S)-LW223] ? 4.5
